The values you see were collected from patent US20040053913A1.

For each of the molecules below, state its IC50.
# subject of test: UniProtKB P05364
# Sequence (P05364 21-381): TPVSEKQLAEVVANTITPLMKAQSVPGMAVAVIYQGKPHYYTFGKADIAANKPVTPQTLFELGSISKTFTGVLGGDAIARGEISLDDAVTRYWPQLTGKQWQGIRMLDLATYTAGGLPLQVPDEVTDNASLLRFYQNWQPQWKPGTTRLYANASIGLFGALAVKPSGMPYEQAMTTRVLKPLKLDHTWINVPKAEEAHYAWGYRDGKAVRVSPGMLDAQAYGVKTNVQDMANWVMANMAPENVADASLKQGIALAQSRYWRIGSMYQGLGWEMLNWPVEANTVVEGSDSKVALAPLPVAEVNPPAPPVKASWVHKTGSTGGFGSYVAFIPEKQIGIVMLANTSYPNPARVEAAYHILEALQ
# assay method text: β-Lactamase inhibition, spectrophotometric nitrocefin hydrolysis assay, AmpC
# Assay type: biochemical
# assay context: enzyme 2.1 nM; 10 minutes preincubation at 25° C.; nitrocefin 50 μg/ml; 50 mM PO4, pH 7.0; read-out: IC50 (nM) Amp-C
Where a name gives a salt, the structure may show the parent alone.
Entry rule: numbers only, all in nM.

// query Consider the molecule shown here: O=C(O)C1=CS[C@@H]2/C(=C\c3c[nH]c(-c4nccs4)n3)C(=O)N12 [Example 4, Sodium Salt] What is its recorded IC50?
// result 2.3

// query Also need O=C(O)C1=CS[C@@H]2/C(=C\c3c[nH]c(-c4ccccc4)n3)C(=O)N12 [Example 6] , thanks.
// result 2.9

// query And O=C(O)C1=CS[C@@H]2/C(=C\c3c[nH]c(Cc4ccccc4)n3)C(=O)N12 [Example 3, Sodium Salt] ?
// result 0.8

---

# subject of test: class A β-lactamases TEM-1 from E. coli (Escherichia coli, UniProt P62593)
# Sequence (P62593 24-286 limits assumed): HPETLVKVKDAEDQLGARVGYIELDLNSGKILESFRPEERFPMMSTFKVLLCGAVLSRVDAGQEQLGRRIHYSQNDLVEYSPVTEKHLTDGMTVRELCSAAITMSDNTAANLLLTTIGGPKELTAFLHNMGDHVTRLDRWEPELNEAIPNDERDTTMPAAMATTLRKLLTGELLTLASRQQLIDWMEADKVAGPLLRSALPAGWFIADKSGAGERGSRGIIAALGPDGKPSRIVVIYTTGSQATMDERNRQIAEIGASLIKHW
# assay method text: β-Lactamase inhibition, spectrophotometric nitrocefin hydrolysis assay, TEM-1
# Format: biochemical
# assay context: enzyme 4.3 nM; 10 minutes preincubation at 25° C.; nitrocefin 50 μg/ml; 50 mM PO4, pH 7.0
Structures can show the parent of a compound that is named as a salt.
Provide the recorded IC50 for the entries that follow.
Number only, in nM; omit the unit.

// query Find IC50 (class A β-lactamases TEM-1 from E. coli (Escherichia coli, UniProt P62593)) for the entry O=C(O)C1=CS[C@@H]2/C(=C\c3c[nH]c(Cc4ccccc4)n3)C(=O)N12 [Example 3, Sodium Salt]
// result 1.2

// query Can you handle O=C(O)C1=CS[C@@H]2/C(=C\c3c[nH]c(-c4ccccc4)n3)C(=O)N12 next?
// result 5.6

// query Try the molecule O=C(O)C1=CS[C@@H]2/C(=C\c3c[nH]c(-c4nccs4)n3)C(=O)N12 [Example 4, Sodium Salt]
// result 0.4
